- Test system: PANC-1
- EXPERIMENT SUMMARY: Cytotoxicity assay (Cytell Cell Viability BioApp), PANC-1
- Assay type: cell-based, human
- MEASUREMENT CONTEXT: Homo sapiens, PANC-1; mean ± SD, three experiments
# Lookup of reported IC50 keyed by entry

{"SMILES REPRESENTATION": "O=[N+]([O-])c1c(Cl)cc2c(no[n+]2[O-])c1Nc1ccc(F)cc1", "INEQUALITY OPERATOR": ">", "IC50, µM": 100}
{"SMILES REPRESENTATION": "COc1ccccc1Nc1c([N+](=O)[O-])c(Cl)cc2c1no[n+]2[O-]", "INEQUALITY OPERATOR": "=", "IC50, µM": 50}
{"SMILES REPRESENTATION": "O=[N+]([O-])c1c(Cl)cc2c(no[n+]2[O-])c1N1CCCC1", "INEQUALITY OPERATOR": ">", "IC50, µM": 100}
{"SMILES REPRESENTATION": "O=[N+]([O-])c1c(Cl)cc2c(no[n+]2[O-])c1NC1CCCCC1", "INEQUALITY OPERATOR": ">", "IC50, µM": 100}
{"SMILES REPRESENTATION": "O=[N+]([O-])c1c(Cl)cc2c(no[n+]2[O-])c1Nc1ccc(Cl)cc1", "INEQUALITY OPERATOR": "=", "IC50, µM": 82.7}

* * *

- System: MCF7
- EXPERIMENT SUMMARY: Cytotoxicity assay (Cytell Cell Viability BioApp), MCF7
- Format: cell-based, human
- MEASUREMENT CONTEXT: selectivity index = IC50 normal cells (Chang liver) / IC50 cancer cells; n.s. = no selectivity

{"COMPOUND": "CCCCNc1c([N+](=O)[O-])c(Cl)cc2c1no[n+]2[O-] [Compound 5a]", "TARGET OF ASSAY": "MCF7", "SI MCF7": "n.s."}
{"COMPOUND": "O=[N+]([O-])c1c(Cl)cc2c(no[n+]2[O-])c1Nc1ccc(F)cc1 [Compound 3a]", "TARGET OF ASSAY": "MCF7", "SI MCF7": "n.s."}
{"COMPOUND": "CN(Cc1ccccc1)c1c([N+](=O)[O-])c(Cl)cc2c1no[n+]2[O-] [Compound 5f]", "TARGET OF ASSAY": "MCF7", "SI MCF7": "n.s."}
{"COMPOUND": "O=[N+]([O-])c1c(Cl)cc2c(no[n+]2[O-])c1N1CCCC1 [Compound 5g]", "TARGET OF ASSAY": "MCF7", "SI MCF7": "n.s."}
{"COMPOUND": "COc1ccccc1Nc1c([N+](=O)[O-])c(Cl)cc2c1no[n+]2[O-] [Compound 3e]", "TARGET OF ASSAY": "MCF7", "SI MCF7": "n.s."}
{"COMPOUND": "COc1cccc2c1C(=O)c1c(O)c3c(c(O)c1C2=O)C[C@@](O)(C(=O)CO)C[C@@H]3O[C@H]1C[C@H](N)[C@H](O)[C@H](C)O1 [Doxorubicin, reference compound]", "TARGET OF ASSAY": "MCF7", "SI MCF7": 1.0}
{"COMPOUND": "CCCCCCNc1c([N+](=O)[O-])c(Cl)cc2c1no[n+]2[O-] [Compound 5b]", "TARGET OF ASSAY": "MCF7", "SI MCF7": "n.s."}
{"COMPOUND": "O=[N+]([O-])c1c(Cl)cc2c(no[n+]2[O-])c1NC1CCCCC1 [Compound 5d]", "TARGET OF ASSAY": "MCF7", "SI MCF7": "n.s."}
{"COMPOUND": "O=[N+]([O-])c1c(Cl)cc2c(no[n+]2[O-])c1Nc1ccc(Br)cc1 [Compound 3c]", "TARGET OF ASSAY": "MCF7", "SI MCF7": 16.6}
{"COMPOUND": "O=[N+]([O-])c1c(Cl)cc2c(no[n+]2[O-])c1Nc1ccc(Cl)cc1 [Compound 3b]", "TARGET OF ASSAY": "MCF7", "SI MCF7": "n.s."}
